Molecular target: T1, cyno IL-33 N-His (cynomolgus monkey)
T1 chain: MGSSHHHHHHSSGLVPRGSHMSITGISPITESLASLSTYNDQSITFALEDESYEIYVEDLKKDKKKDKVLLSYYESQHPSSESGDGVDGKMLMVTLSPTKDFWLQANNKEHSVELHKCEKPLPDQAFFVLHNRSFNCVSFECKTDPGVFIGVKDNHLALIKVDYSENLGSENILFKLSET
Assay: SPR Biacore T200, 25 C
pKd: −log10 of the molar value.
Reported pKd is given for each of the following binders.

{"columns": ["binder", "pKd"],
 "data": [
  ["H4H9666P (antibody, V domains shown) VH: QVQLVQSGAEVKKPGASVKVSCKASGYTFTSYGISWVRQAPGQGLEWMGWIRAYNGYTNYAQKFQGRVTMTTDTSTNTAYMELRTLNSDDTAVYYCARDRYSGSFHGNFDYWGQGTLVTVSS VL: DIQMTQSPSSVSASVGDRVTITCRASQGIFSWLAWYQQKPGKAPKVLIYAASNLESGVPSRFSGSGSGTDFTLTISSLQPEDFATYYCQQANSLPLTFGGGTKVEIK", 7.42],
  ["H4H9671P (antibody, V domains shown) VH: EVQLVESGGGLVQPGGSLRLSCAASGFTLRSYFMTWVRQVPGKGLEGVSAISGISGGTYYTDSVKGRFTISRDNSKNTLFLQMNSLRAEDTAVYFCARTVYSSSYYGGFQHWGQGTLVTVSS VL: DIQMTQSPSSVSVSVGDRVTITCRASQGISSWLAWYQQKPGKAPKLLIYVASSLQSGVPSRFSGSGSGTDFTLTISSLQPEDFATYYCQQTNSFPLTFGGGTKVEIK", 8.76],
  ["H4H9660P (antibody, V domains shown) VH: EVQLVESGGGLVQPGGSLRLSCAASGITLSSYGMSWVRQAPGKGLEWVASIFGSGGGPYYADSVKGRFTMSRDNSKNTLYLQMNSLRAEDTAVYYCAKDRYSGSYYGGFDYWGRGTLVTVSS VL: DIQMTQSPSSVSASVGDRVTITCRASQGITSWLAWYQQKPGKAPTLLIYAASSLQTGVPSRFSGSGSGTDFTLTISSLQPEHFATYYCQQANSFPPTFGGGTKVEIK", 8.57]
]}
